Values compiled from patent US20260078103A1.

IC50 reference
system: phosphorylation of AKT (pAKT) in T47D cells expressing mutant PI3Ka (H1047R); assay: In vitro cell pAKT (Ser473) HTRF, T47D cells; assay type: cell-based; conditions: cellular pAKT, T47D cells, mutant PI3Ka (H1047R), 6 hours; read-out: Avg T-47D IC50

Answered cases to consult:
Cc1cc(C(C)Nc2ccccc2C(=O)O)c2cc(C#Cc3cccc(C#N)c3)n(C)c(=O)c2c1 (stereo not drawn) [Example 159] :: 500 to 2000 nM
CC(Nc1ccccc1C(=O)O)c1cc(F)cc2c(=O)n(C)c(-c3ccc(OC4CC(F)C4)nc3)cc12 (stereo not drawn) [Example 448] :: 1 to 500 nM
COc1ccc(-c2cc3c(C(C)Nc4ccccc4C(=O)O)cc(C)cc3c(=O)n2C)cn1 (single isomer, unassigned) [Example 155] :: 1 to 500 nM
Cc1cc([C@@H](C)Nc2ccccc2C(=O)O)c2cc(N3CCN(C)C(C(F)(F)F)C3)n(C)c(=O)c2c1 (single isomer, unassigned) [Example 302] :: 1 to 500 nM
Cc1cc(C(C)Nc2ccccc2C(=O)O)c2cc(N3CCN(C(C)C(F)(F)F)CC3)n(C)c(=O)c2c1 (mixture of isomers) [Example 271] :: 1 to 500 nM

Okay, next one:
Q: Notebook entry, phosphorylation of AKT (pAKT) in T47D cells expressing mutant PI3Ka (H1047R) assay: IC50 of Cc1cc(C(C)Nc2ccccc2C(=O)O)c2cc(N3CC(C)(O)C3)n(C)c(=O)c2c1 (single isomer, unassigned) [Example 182] = ?
Result: 2000 to 15000 nM
